# target or system: WbDHFR (Wuchereria bancrofti)
# Format: biochemical
# condition: read-out: IC50 WbDHFR; pH 6.0, 100 μM NADPH, 50 μM DHF, 12.1 nM WbDHFR; average of triplicates ± S.D.
# IC50 per entry
Write the answer as a number in µM, unit excluded.

Answered examples (2):
[
  {
    "mol smiles": "Nc1nc(N)c2nc(CNc3ccc(C(=O)N[C@@H](CCC(=O)O)C(=O)O)cc3)cnc2n1",
    "recorded number": 0.014
  },
  {
    "mol smiles": "Cc1nc2ccc(CN(C)c3ccc(C(=O)N[C@@H](CCC(=O)O)C(=O)O)s3)cc2c(=O)[nH]1",
    "recorded number": 18
  }
]

Now, please, on to the next compound.
Prompt: Endpoint output: IC50 of CCc1nc(N)nc(N)c1-c1ccc(Cl)cc1 . Value?
Completion: 454

----------
# target or system: WbDHFR (Wuchereria bancrofti)
# Format: biochemical
# condition: read-out: IC50 against WbDHFR Average; average of three trials
Reported IC50 by item:
Write the value in µM as a bare number.

Use the examples below as a reference point.
[
  {
    "mol smiles": "Nc1nc(N)c2nc(CNc3ccc(C(=O)N[C@@H](CCC(=O)O)C(=O)O)cc3)cnc2n1",
    "units": "µM",
    "IC50": 0.0144
  },
  {
    "mol smiles": "Cc1nc2ccc(CN(C)c3ccc(C(=O)N[C@@H](CCC(=O)O)C(=O)O)s3)cc2c(=O)[nH]1",
    "units": "µM",
    "IC50": 17.8
  }
]

Kindly consider the entry below.
Prompt: Request body: readout IC50, system WbDHFR (Wuchereria bancrofti), query CCc1nc(N)nc(N)c1-c1ccc(Cl)cc1 . Return the value.
Completion: 454

----------
# target or system: WbDHFR (Wuchereria bancrofti, UniProt J9F199)
# condition: read-out: KI Trial 2, WbDHFR; individual trial, Dixon plot
endpoint: pKi
Note on units: pKi is unitless, being -log10 of a concentration expressed in mol/L.

Prompt: Find the recorded pKi belonging to Cc1nc2ccc(CN(C)c3ccc(C(=O)N[C@@H](CCC(=O)O)C(=O)O)s3)cc2c(=O)[nH]1 [Raltitrexed, raltitrexed] and report it.
Completion: 5.96

Prompt: How about this compound: CCc1nc(N)nc(N)c1-c1ccc(Cl)cc1 [Pyrimethamine, pyrimethamine]
Completion: 4.80

Prompt: Field entry: Nc1nc(N)c2nc(CNc3ccc(C(=O)N[C@@H](CCC(=O)O)C(=O)O)cc3)cnc2n1 [Aminopterin, aminopterin]
Completion: 8.66

----------
# target or system: WbDHFR (Wuchereria bancrofti)
# condition: read-out: KI WbDHFR; from Dixon plots; 6 nM WbDHFR, 100 μM NADPH, DHF 2, 4, 8 μM, pH 6.0; ± S.D.
endpoint: pKi
In plain terms, pKi is the concentration in mol/L turned into minus its base-10 logarithm.

Prompt: pKi lookup needed for Nc1nc(N)c2nc(CNc3ccc(C(=O)N[C@@H](CCC(=O)O)C(=O)O)cc3)cnc2n1 , thanks.
Completion: 8.68

Prompt: Thanks! And CCc1nc(N)nc(N)c1-c1ccc(Cl)cc1 ?
Completion: 4.82

----------
# target or system: WbDHFR (Wuchereria bancrofti, UniProt J9F199)
# condition: read-out: KI Trial 3, WbDHFR; individual trial, Dixon plot
endpoint: Ki (µM)
Express the result in µM but write the number alone.

Sample answers from the record:
[
  {
    "molecule": "Cc1nc2ccc(CN(C)c3ccc(C(=O)N[C@@H](CCC(=O)O)C(=O)O)s3)cc2c(=O)[nH]1 [Raltitrexed, raltitrexed]",
    "target or system": "WbDHFR (Wuchereria bancrofti, UniProt J9F199)",
    "recorded number": 3.32
  },
  {
    "molecule": "CCc1nc(N)nc(N)c1-c1ccc(Cl)cc1 [Pyrimethamine, pyrimethamine]",
    "target or system": "WbDHFR (Wuchereria bancrofti, UniProt J9F199)",
    "recorded number": 8.89
  }
]

--- query ---
Prompt: Name the reported Ki value associated with the molecule Nc1nc(N)c2nc(CNc3ccc(C(=O)N[C@@H](CCC(=O)O)C(=O)O)cc3)cnc2n1 [Aminopterin, aminopterin]
Completion: 0.0016

----------
# target or system: WbDHFR (Wuchereria bancrofti)
# Format: biochemical
# condition: read-out: IC50 against WbDHFR Trial 1; individual trial
Reported values of IC50 for individual entries

Recorded IC50, per entry:
[
  {
    "compound": "CCc1nc(N)nc(N)c1-c1ccc(Cl)cc1 [Pyrimethamine, pyrimethamine]",
    "target or system": "WbDHFR (Wuchereria bancrofti)",
    "IC50": "449 µM"
  },
  {
    "compound": "Nc1nc(N)c2nc(CNc3ccc(C(=O)N[C@@H](CCC(=O)O)C(=O)O)cc3)cnc2n1 [Aminopterin, aminopterin]",
    "target or system": "WbDHFR (Wuchereria bancrofti)",
    "IC50": "0.0203 µM"
  }
]

Could you now look at the following compound, please?
Prompt: What value of IC50 has been recorded for this entry: Cc1nc2ccc(CN(C)c3ccc(C(=O)N[C@@H](CCC(=O)O)C(=O)O)s3)cc2c(=O)[nH]1 [Raltitrexed, raltitrexed]
Completion: 28.6 µM

----------
# target or system: WbDHFR (Wuchereria bancrofti, UniProt J9F199)
# condition: read-out: KI Trial 1, WbDHFR; individual trial, Dixon plot
endpoint: pKi
As a rule, pKi stands for the negative log10 of the concentration, concentration in M.

[
  {
    "mol smiles": "Cc1nc2ccc(CN(C)c3ccc(C(=O)N[C@@H](CCC(=O)O)C(=O)O)s3)cc2c(=O)[nH]1",
    "recorded number": 6.27
  },
  {
    "mol smiles": "Nc1nc(N)c2nc(CNc3ccc(C(=O)N[C@@H](CCC(=O)O)C(=O)O)cc3)cnc2n1",
    "recorded number": 8.59
  }
]

// next entry
Prompt: Give WbDHFR (Wuchereria bancrofti, UniProt J9F199) pKi for CCc1nc(N)nc(N)c1-c1ccc(Cl)cc1
Completion: 4.69
